molecular target: GABA receptor complex (GRC); assay: [35S]TBPS binding in rat cerebral cortex P2 homogenate; conditions: concentration to inhibit 50% of control [35S]TBPS binding; 2 nM [35S]TBPS
Counter-ions that a name gives are not always drawn.
property-measured: pIC50
Give bare numbers, as −log10 of the molar value.

Worked examples follow.
The value of pIC50 measured for the compound C#CC1(O)CCC2(C)C(CCC3C2CCC2(C)C(C(=O)CSCCCOS(=O)(=O)O)CCC32)C1 (centres unmarked) [sodium salt] turned out to be 6.95

The value of pIC50 measured for the compound C#C[C@@]1(O)CC[C@@]2(C)[C@@H](CC[C@@H]3[C@@H]2CC[C@]2(C)[C@@H](C(=O)CSc4ccncc4)CC[C@@H]32)C1 turned out to be 7.37

The value of pIC50 measured for the compound C#CC1(O)CCC2(C)C(CCC3C2CCC2(C)C(C(=O)C[S+]([O-])CCCO)CCC32)C1 (centres unmarked) turned out to be 6.11

Please go through the list and note pIC50 for each compound.
1. COC1CCC2C3CCC4CC(O)(C(F)(F)F)CCC4(C)C3CCC12C (stereo not drawn) [3α-Hydroxy-17β-methoxy-3β-trifluoromethyl-5α-androstane]
2. C[C@]12CC[C@@H](O)C[C@H]1CC[C@@H]1[C@@H]2CC[C@]2(C)[C@@H](C(=O)CSc3ccncc3)CC[C@@H]12
3. C#C[C@@]1(O)CC[C@@]2(C)[C@@H](CC[C@@H]3[C@@H]2CC[C@]2(C)[C@@H](OC)CC[C@@H]32)C1
4. CCCOC1CC2(C)C(CCC3C2CCC2(C)C(C(=O)CSc4cc[n+](C)cc4)CCC32)CC1O (centres unmarked)
5. CC(C)O[C@H]1C[C@@]2(C)[C@@H](CC[C@H]3[C@@H]4CCC[C@@]4(C)CC[C@@H]32)C[C@@H]1O [3α-Hydroxy-2β-isopropoxy-5α-androstane, 2β-Isopropoxy-3α-hydroxy-5α-androstane]
6. CC12CCC(O)CC1CCC1C2CCC2(C)C(C(=O)CS(=O)(=O)O)CCC12 (centres unmarked)
7. C[C@]12CC[C@@H](O)C[C@H]1CC[C@@H]1[C@@H]2CC[C@]2(C)[C@@H](C(=O)CSCCO)CC[C@@H]12
8. CO[C@H]1CC[C@H]2[C@@H]3CC[C@H]4C[C@](C)(O)CC[C@]4(C)[C@H]3CC[C@]12C

RESULT:
[6.47, 7.23, 6.91, 6.90, 6.34, 6.14, 6.85, 7.01]

Please go through the list and note pIC50 for each compound.
1. COCC1(O)CCC2(C)C(CCC3C2CCC2(C)C(C(=O)CSc4ccc(N)cc4)CCC32)C1 (centres unmarked)
2. C[n+]1cccc2cc(OCC(=O)C3CCC4C5CCC6CC(C)(O)CCC6(C)C5CCC34C)ccc21 (centres unmarked)
3. CO[C@H]1CC[C@H]2[C@@H]3CC[C@H]4C[C@H](O)[C@@H](OC(C)C)C[C@]4(C)[C@H]3CC[C@]12C
4. C#CC1(O)CCC2(C)C(CCC3C2CCC2(C)C(C(=O)CSCCC(=O)O)CCC32)C1 (centres unmarked) [sodium salt]
5. C#CC1(O)CCC2C(CCC3C2CCC2(C)C(OC)CCC32)C1 (centres unmarked)
6. COC1CCC2C3CCC4CC(O)(C(F)(F)F)CCC4C3CCC12C (centres unmarked)

RESULT:
6.90
6.60
7.59
5.99
7.25
7.03

Please go through the list and note pIC50 for each compound.
1. C[C@]12CC[C@@H](O)C[C@@H]1CC[C@@H]1[C@@H]2CC[C@]2(C)[C@@H](C(=O)CO)CC[C@@H]12 [3α,21-Dihydroxy-5α-pregnan-20-one, reference compound]
2. COC1CCC2C3CCC4CC(O)(C(F)(F)F)CCC4(C)C3CCC12C (stereo not drawn) [3α-Hydroxy-17β-methoxy-3β-trifluoromethyl-5β-androstane]
3. C#CCC1(O)CCC2(C)C(CCC3C2CCC2(C)C(OC)CCC32)C1 (centres unmarked)
4. CC(=O)[C@H]1CC[C@H]2[C@@H]3CC[C@H]4C[C@H](O)CC[C@]4(C)[C@H]3CC[C@]12C [3α-Hydroxy-5α-pregnan-20-one, reference compound]
5. COC1CCC2C3CCC4CC(O)(C#Cc5ccc(C(C)=O)cc5)CCC4C3CCC12C (centres unmarked)
6. C#CCO[C@H]1CC[C@H]2[C@@H]3CC[C@H]4C[C@](C)(O)CC[C@]4(C)[C@H]3CC[C@]12C
7. COCC1(O)CCC2(C)C(CCC3C2CCC2(C)C(C(=O)CS(=O)(=O)c4ccc(N5CCCC5)cc4)CCC32)C1 (centres unmarked)
8. C#C[C@@]1(O)CC[C@@]2(C)[C@H](CC[C@@H]3[C@@H]2CC[C@]2(C)[C@@H](C(=O)CSCCO)CC[C@@H]32)C1

RESULT:
1. 7.12
2. 6.67
3. 6.41
4. 7.43
5. 8.10
6. 6.79
7. 6.68
8. 6.74

----------
Target: GABA receptor complex (GRC)
Assay: [35S]TBPS binding in rat cerebral cortex P2 homogenate
Details: concentration to inhibit 50% of control [35S]TBPS binding; 2 nM [35S]TBPS
From the text: To those skilled in the art, it is known that the modulation of [^35S]t-butylbicyclophosphorothionate ([^35S]TBPS) binding is a measure of the potency and efficacy of drugs acting at the GRC, which drugs may be of potential therapeutic value in the treatment of stress, anxiety, and seizure disorders (Squires, R. F., et al., Mol, Pharmacol., 23:326 (1983); Lawrence, L. J., et al., Biochem. Biophys. Res. Comm., 123:1130-1137 (1984); Wood, et al., Pharmacol, Exp. Ther., 231:572-576 (1984)). […]
Where a name gives a salt, the structure may show the parent alone.
I'd appreciate it if you could supply IC50 values for the items below.
One number for each entry, in nM.

The value of IC50 measured for the molecule C#C[C@@]1(O)CC[C@@]2(C)[C@H](CC[C@@H]3[C@@H]2CC[C@]2(C)[C@@H](OC)CC[C@@H]32)C1 turned out to be 49

Please go through the list and note IC50 for each molecule.
1. COCC1(O)CCC2(C)C(CCC3C2CCC2(C)C(OC)CCC32)C1 (stereo not shown)
2. CC(=O)c1ccc(C#CC2(O)CCC3C(CCC4C3CCC3(C)CCCC43)C2)cc1 (stereo not shown)
3. C#CC1(O)CCC2(C)C(CCC3C2CCC2(C)C(C(=O)CSCCCS(=O)(=O)O)CCC32)C1 (stereo not shown) [sodium salt]
4. C[C@@]12CCC[C@H]1[C@@H]1CC[C@@H]3C[C@H](O)CC[C@]3(C)[C@H]1CC2 [3α-Hydroxy-5β-androstane, reference compound]
5. C[C@]12CC[C@@H](O)C[C@H]1CC[C@@H]1[C@@H]2CC[C@]2(C)[C@@H](C(=O)CSc3ccccn3)CC[C@@H]12

RESULT:
[64, 492, 343, 815, 90]

Please go through the list and note IC50 for each molecule.
1. COCC1(O)CCC2(C)C(CCC3C2CCC2(C)C(C(=O)CS(=O)(=O)c4ccc(F)cc4)CCC32)C1 (stereo not shown)
2. COCC1(O)CCC2(C)C(CCC3C2CCC2(C)C(C(=O)CSc4ccncc4)CCC32)C1 (stereo not shown)
3. C[C@]12CC[C@@H](O)C[C@H]1CC[C@@H]1[C@@H]2CC[C@]2(C)[C@@H](C(=O)C[S+]([O-])c3ccncc3)CC[C@@H]12 (stereo partly shown)
4. COC1CCC2C3CCC4CC(O)(C#CCCO)CCC4(C)C3CCC12C (stereo not drawn) [3β-(4′-Hydroxybutyn-1′-yl)-3α-hydroxy-17β-methoxy-5α-androst]
5. CC12CCC(O)CC1CCC1C2CCC2(C)C(C(=O)COc3ccc[n+]([O-])c3)CCC12 (stereo not shown)

RESULT:
1. 49
2. 38
3. 235
4. 47
5. 292

Please go through the list and note IC50 for each molecule.
1. C#C[C@@]1(O)CC[C@@]2(C)[C@H](CC[C@@H]3[C@@H]2CC[C@]2(C)[C@@H](C(=O)CSCCCO)CC[C@@H]32)C1
2. CC12CCC(O)CC1CCC1C2CCC2(C)C(C(=O)CSc3ncc[nH]3)CCC12 (stereo not shown)
3. COC1CCC2C3CCC4CC(O)(C#Cc5ccc(C(C)=O)cc5)CCC4(C)C3CCC12C (stereo not shown)
4. C#CC1(O)CCC2(C)C(CCC3C2CCC2(C)C(C(=O)CSCCS(=O)(=O)O)CCC32)C1 (stereo not shown) [sodium salt]
5. CC(=O)[C@H]1CC[C@H]2[C@@H]3CCC4=CC(=O)CC[C@]4(C)[C@H]3CC[C@]12C [Progesterone, reference compound]

RESULT:
[93, 184, 20, 607, 5200]
